# study-target: HLA-A*02:12
# assay-notes: IEDB peptide-MHC binding, purified MHC/competitive/fluorescence; filed as Kd, often an IC50 or EC50 that approximates it; bounds were set here for any values at or beyond the usual limits of such assays
# condition: source organism: Encephalitozoon cuniculi GB-M1
reported-endpoint: Kd (nM)
Give the quantity in nM, number only.

QUERY: Consider the sequence shown here: NLFEIEWEE What is its recorded Kd?
RESULT: 298

###

# study-target: HLA-B*27:05
# assay-notes: IEDB peptide-MHC binding, purified MHC/direct/fluorescence; filed as Kd, often an IC50 or EC50 that approximates it; bounds were set here for any values at or beyond the usual limits of such assays
# condition: source organism: Yersinia pestis
pKd: −log10 of the molar value.
reported-endpoint: pKd

QUERY: Consider the sequence shown here: LTDEDKQNQ What is its recorded pKd?
RESULT: ≤ 4.70
